- Tested on: LG0703-F948-PDC complex spheroid viability
- method-summary: Anticancer human tumor LG0703-F948-PDC patient-derived lung adenocarcinoma cell line growth inhibition [RAS]
- conditions: second compound 0.1 µM; first compound 0.0316 µM; hits give low values
Listed next: entries and their corresponding viability, T/C.
property: viability, T/C (%)

>>> measured_value("CCC(CC)c1cc(NC2CCC(N)C2)n2nccc2n1 (centres undefined) + C#Cc1c(F)ccc2cc(O)cc(-c3ncc4c(N5CC6CCC(C5)N6)nc(OCC56CCCN5CC(F)C6)nc4c3F)c12")
97.5
>>> measured_value("CC(Nc1ccc2c(c1)OCCn1cc(N3C(=O)OCC3C(F)F)nc1-2)C(N)=O (centres undefined) + C=CC(=O)N1CCN(c2nc(OCC3CCCN3C)nc3c(F)c(-c4nc(N)cc(C)c4C(F)(F)F)c(Cl)cc23)C(C)C1")
105
>>> measured_value("CC(=O)OC12COC1CC(O)C1(C)C(=O)C(O)C3=C(C)C(OC(=O)C(O)C(NC(=O)OC(C)(C)C)c4ccccc4)CC(O)(C(OC(=O)c4ccccc4)C21)C3(C)C (centres undefined) + C=CC(=O)N1CCN(c2nc(OCC3CCCN3C)nc3c(F)c(-c4nc(N)cc(C)c4C(F)(F)F)c(Cl)cc23)C(C)C1")
22.1
>>> measured_value("Cc1nc(N2CCC3(CC2)COC(C)C3N)c(CO)nc1Sc1ccnc(N)c1Cl (centres undefined) + C#Cc1c(F)ccc2cc(O)cc(-c3ncc4c(N5CC6CCC(C5)N6)nc(OCC56CCCN5CC(F)C6)nc4c3F)c12")
83.4
>>> measured_value("CC(Nc1ccc2c(c1)OCCn1cc(N3C(=O)OCC3C(F)F)nc1-2)C(N)=O (centres undefined) + C#Cc1c(F)ccc2cc(O)cc(-c3ncc4c(N5CC6CCC(C5)N6)nc(OCC56CCCN5CC(F)C6)nc4c3F)c12")
80.7
>>> measured_value("CC(C)NCC(C(=O)N1CCN(c2ncnc3c2C(C)CC3O)CC1)c1ccc(Cl)cc1 (centres undefined) + C#Cc1c(F)ccc2cc(O)cc(-c3ncc4c(N5CC6CCC(C5)N6)nc(OCC56CCCN5CC(F)C6)nc4c3F)c12")
86.1
>>> measured_value("CC(C)n1nc(-c2ccc3oc(N)nc3c2)c2c(N)ncnc21 + C#Cc1c(F)ccc2cc(O)cc(-c3ncc4c(N5CC6CCC(C5)N6)nc(OCC56CCCN5CC(F)C6)nc4c3F)c12")
19.7
>>> measured_value("CC(=O)OC12COC1CC(O)C1(C)C(=O)C(O)C3=C(C)C(OC(=O)C(O)C(NC(=O)OC(C)(C)C)c4ccccc4)CC(O)(C(OC(=O)c4ccccc4)C21)C3(C)C (centres undefined) + C#Cc1c(F)ccc2cc(O)cc(-c3ncc4c(N5CC6CCC(C5)N6)nc(OCC56CCCN5CC(F)C6)nc4c3F)c12")
23.5
>>> measured_value("C=CC(=O)Nc1cc(Nc2nccc(-c3cn(C)c4ccccc34)n2)c(OC)cc1N(C)CCN(C)C + C#Cc1c(F)ccc2cc(O)cc(-c3ncc4c(N5CC6CCC(C5)N6)nc(OCC56CCCN5CC(F)C6)nc4c3F)c12")
15.8
>>> measured_value("C[C@@H](NC(=O)c1ncnc(N)c1Cl)c1ncc(C(=O)Nc2cc(C(F)(F)F)c(Cl)cn2)s1 + C=CC(=O)N1CCN(c2nc(OCC3CCCN3C)nc3c(F)c(-c4nc(N)cc(C)c4C(F)(F)F)c(Cl)cc23)C(C)C1")
106
>>> measured_value("Nc1ccn(C2OC(CO)C(O)C2(F)F)c(=O)n1 (centres undefined) + C=CC(=O)N1CCN(c2nc(OCC3CCCN3C)nc3c(F)c(-c4nc(N)cc(C)c4C(F)(F)F)c(Cl)cc23)C(C)C1")
26.8
>>> measured_value("C[C@@H](NC(=O)c1ncnc(N)c1Cl)c1ncc(C(=O)Nc2cc(C(F)(F)F)c(Cl)cn2)s1 + C#Cc1c(F)ccc2cc(O)cc(-c3ncc4c(N5CC6CCC(C5)N6)nc(OCC56CCCN5CC(F)C6)nc4c3F)c12")
87.5
>>> measured_value("CCN1CCN(Cc2ccc(Nc3ncc(F)c(-c4cc(F)c5nc(C)n(C(C)C)c5c4)n3)nc2)CC1 + C#Cc1c(F)ccc2cc(O)cc(-c3ncc4c(N5CC6CCC(C5)N6)nc(OCC56CCCN5CC(F)C6)nc4c3F)c12")
92.1
>>> measured_value("CCN1CCN(Cc2ccc(Nc3ncc(F)c(-c4cc(F)c5nc(C)n(C(C)C)c5c4)n3)nc2)CC1 + C=CC(=O)N1CCN(c2nc(OCC3CCCN3C)nc3c(F)c(-c4nc(N)cc(C)c4C(F)(F)F)c(Cl)cc23)C(C)C1")
92.5
>>> measured_value("O=C(c1ccc(F)c(F)c1Nc1ccc(I)cc1F)N1CC(O)([C@@H]2CCCCN2)C1 + C#Cc1c(F)ccc2cc(O)cc(-c3ncc4c(N5CC6CCC(C5)N6)nc(OCC56CCCN5CC(F)C6)nc4c3F)c12")
64
>>> measured_value("C=CC(=O)N1CCN(c2nc(OCC3CCCN3C)nc3c(F)c(-c4nc(N)cc(C)c4C(F)(F)F)c(Cl)cc23)C(C)C1 (centres undefined) + C#Cc1c(F)ccc2cc(O)cc(-c3ncc4c(N5CC6CCC(C5)N6)nc(OCC56CCCN5CC(F)C6)nc4c3F)c12")
94.9
>>> measured_value("NC1c2ccccc2OC12CCN(c1cnc3c(N4CCCc5ncccc54)n[nH]c3n1)CC2 (centres undefined) + C=CC(=O)N1CCN(c2nc(OCC3CCCN3C)nc3c(F)c(-c4nc(N)cc(C)c4C(F)(F)F)c(Cl)cc23)C(C)C1")
60.3
>>> measured_value("O=C(c1ccc(F)c(F)c1Nc1ccc(I)cc1F)N1CC(O)([C@@H]2CCCCN2)C1 + C=CC(=O)N1CCN(c2nc(OCC3CCCN3C)nc3c(F)c(-c4nc(N)cc(C)c4C(F)(F)F)c(Cl)cc23)C(C)C1")
50.6
>>> measured_value("CC1(O)CCCC1n1c(=O)c(C(F)F)cc2cnc(NC3CCN(S(C)(=O)=O)CC3)nc21 (centres undefined) + C#Cc1c(F)ccc2cc(O)cc(-c3ncc4c(N5CC6CCC(C5)N6)nc(OCC56CCCN5CC(F)C6)nc4c3F)c12")
131

----------
- System: LG0703-F948-PDC complex spheroid viability
- method-summary: Anticancer human tumor LG0703-F948-PDC cell line growth inhibition [RAS];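 also: spheroids exposed to agents for 7 days; 100% = DMSO vehicle wells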
- conditions: second compound 0.00316 µM; first compound 0.0316 µM; hits give low values
property: viability, T/C (%)

>>> measured_value("CC(C)n1nc(-c2ccc3oc(N)nc3c2)c2c(N)ncnc21 + C=CC(=O)N1CCN(c2nc(OCC3CCCN3C)nc3c(F)c(-c4nc(N)cc(C)c4C(F)(F)F)c(Cl)cc23)C(C)C1")
12.6
>>> measured_value("CC(=O)OC12COC1CC(O)C1(C)C(=O)C(O)C3=C(C)C(OC(=O)C(O)C(NC(=O)OC(C)(C)C)c4ccccc4)CC(O)(C(OC(=O)c4ccccc4)C21)C3(C)C (configuration not stated) + C=CC(=O)N1CCN(c2nc(OCC3CCCN3C)nc3c(F)c(-c4nc(N)cc(C)c4C(F)(F)F)c(Cl)cc23)C(C)C1")
26.8

----------
- System: LG0703-F948-PDC complex spheroid viability
- method-summary: Anticancer human tumor LG0703-F948-PDC cell line growth inhibition [RAS];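 also: spheroids exposed to agents for 7 days; 100% = DMSO vehicle wells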
- conditions: second compound 0.1 µM; first compound 0.01 µM; hits give low values
property: viability, T/C

>>> measured_value("CCN1CCN(Cc2ccc(Nc3ncc(F)c(-c4cc(F)c5nc(C)n(C(C)C)c5c4)n3)nc2)CC1 + C=CC(=O)N1CCN(c2nc(OCC3CCCN3C)nc3c(F)c(-c4nc(N)cc(C)c4C(F)(F)F)c(Cl)cc23)C(C)C1")
"98.9%"
>>> measured_value("Nc1ccn(C2OC(CO)C(O)C2(F)F)c(=O)n1 (stereo not drawn) + C=CC(=O)N1CCN(c2nc(OCC3CCCN3C)nc3c(F)c(-c4nc(N)cc(C)c4C(F)(F)F)c(Cl)cc23)C(C)C1")
"35.4%"
>>> measured_value("CC(C)n1nc(-c2ccc3oc(N)nc3c2)c2c(N)ncnc21 + C=CC(=O)N1CCN(c2nc(OCC3CCCN3C)nc3c(F)c(-c4nc(N)cc(C)c4C(F)(F)F)c(Cl)cc23)C(C)C1")
"31.4%"
